Let's go through some MIC measurements on Staph. aureus ATCC 6538P together.
Counter-ions that a name gives are not always drawn.
# number only, unit µg/mL dropped from output

[[record]]
compound = "N[C@H]1CCC[C@H]2CN(c3c(F)cn4c(=O)c(C(=O)O)cc5c4c3Oc3ccccc3-5)C[C@H]21 (relative stereo) [Example 3, hydrochloride]"
target_system = "Staph. aureus ATCC 6538P"
unit_descriptor = "µg/mL"
reported = 0.78


The measured MIC associated with O=C(O)c1cn(C2CC2)c2cc(N3CCNCC3)c(F)cc2c1=O [Ciprofloxacin, ciprofloxacin, reference compound] reads 0.2

In plain terms, NC1CCN(c2c(F)cn3c(=O)c(C(=O)O)cc4c3c2Oc2ccccc2-4)C1 (stereo not shown) [Example 2, hydrochloride] has a documented MIC of 6.2

Kindly note the recorded MIC for O=C(O)c1cc2c3c(c(N4CCOCC4)c(F)cn3c1=O)Oc1ccccc1-2 [Example 1] , which is 0.78

###

Consider the following MIC values measured on Staph. aureus 642A.
Where a name gives a salt, the structure may show the parent alone.
Report the value in µg/mL with no unit label.

# example entries with known answers
[[record]]
molecule = "O=C(O)c1cn(C2CC2)c2cc(N3CCNCC3)c(F)cc2c1=O [Ciprofloxacin, ciprofloxacin, reference compound]"
target_system = "Staph. aureus 642A"
unit_descriptor = "µg/mL"
reported = 0.39

[[record]]
molecule = "N[C@H]1CCC[C@H]2CN(c3c(F)cn4c(=O)c(C(=O)O)cc5c4c3Oc3ccccc3-5)C[C@H]21 (relative stereo) [Example 3, hydrochloride]"
target_system = "Staph. aureus 642A"
unit_descriptor = "µg/mL"
reported = 0.78

[[record]]
molecule = "O=C(O)c1cc2c3c(c(N4CCOCC4)c(F)cn3c1=O)Oc1ccccc1-2"
target_system = "Staph. aureus 642A"
unit_descriptor = "µg/mL"
reported = 0.78


GET /values?item= NC1CCN(c2c(F)cn3c(=O)c(C(=O)O)cc4c3c2Oc2ccccc2-4)C1 (stereo not shown) [Example 2, hydrochloride] &system= Staph. aureus 642A returns MIC: 6.2
